B1: MTMR15 (parent)
chain: YVKAKKSIDKDEEFAGSSPQSSKS

# Variants of: B1
# runDescription: protein stability index of a GFP-peptide fusion (GPS, HEK-293T) (PSI 1-6); higher = more stable;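 further: lentivirally expressed fusions sorted by FACS into six bins by GFP to DsRed ratio, PSI derived from sequencing read proportions per bin multiplied by bin number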
# conditionContext: c terminus: a fixed tail appended
Catalogue of protein stability index values
outcomeMeasure: protein stability index

1) S18K :: 3.04
2) D11H :: 2.92
3) V2I :: 4.23
4) S24C :: 3.13
5) K23W :: 2.58
6) P19E :: 2.94
7) Y1W :: 4.66
8) D11K :: 2.64
9) S24D :: 2.94
10) A15G :: 3.45
11) K5R :: 2.73
12) F14S :: 3.46
13) F14H :: 3.47
14) A4E :: 3.54
15) Q20Y :: 2.62
16) F14Y :: 3.5
17) Q20L :: 3
18) S21Y :: 2.98
19) Y1S :: 5.49
20) S18A :: 2.99
21) K10R :: 3.25
22) V2R :: 5.42

Origin of measurements: the supplement of paper PMC10567573
